- assayed-system: PDI (Homo sapiens)
- Sequence (P07237 18-508): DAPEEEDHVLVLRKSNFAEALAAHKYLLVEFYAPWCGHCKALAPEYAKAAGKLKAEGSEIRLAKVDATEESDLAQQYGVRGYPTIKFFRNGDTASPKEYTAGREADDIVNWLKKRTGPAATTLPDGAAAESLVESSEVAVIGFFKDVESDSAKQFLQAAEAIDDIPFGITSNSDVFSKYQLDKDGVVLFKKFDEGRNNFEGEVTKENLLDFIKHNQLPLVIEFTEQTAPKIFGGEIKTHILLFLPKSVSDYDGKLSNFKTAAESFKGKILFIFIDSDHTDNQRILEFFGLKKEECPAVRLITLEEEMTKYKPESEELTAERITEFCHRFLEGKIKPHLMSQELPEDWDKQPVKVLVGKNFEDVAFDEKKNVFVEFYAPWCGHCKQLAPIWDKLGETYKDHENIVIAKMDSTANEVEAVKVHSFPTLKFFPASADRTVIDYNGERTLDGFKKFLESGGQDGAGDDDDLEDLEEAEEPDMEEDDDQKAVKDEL
- method-description: Protein mass spectrometry
- Format: binding
- setup-conditions: 10 μM PDI, 100 μM DTT, 100 μM compound
readout: covalent binding to PDI by mass spectrometry

# compound, observed-value
records = [
    ("Oc1c(C(c2ccc(F)cc2)N2CCN(C(c3ccc(F)cc3)c3ccc4cncnc4c3O)CC2)ccc2cncnc12 (stereo not shown) [5d dimer]", "bound to PDI"),
    ("Oc1c(C(c2ccc(F)cc2)N2CCNCC2)ccc2cncnc12 (stereo not shown) [5d]", "bound to PDI"),
]

----------
- assayed-system: PDIA1 (Homo sapiens)
- Sequence (P07237 18-508): as above
- method-description: PDI reductase assay
- Assay type: biochemical
readout: PDI inhibition in the PDI reductase assay (in words)

# molecule, assayed-system, observed-value
measured = [
    ("CN(C)c1cccc(C(c2ccc(F)cc2)N2CCCCC2)c1O (stereo not shown)", "PDIA1 (Homo sapiens)", "lost activity"),
    ("Oc1cc2c(cc1C(c1ccc(F)cc1)N1CCCCC1)CCCC2 (stereo not shown)", "PDIA1 (Homo sapiens)", "completely lost activity"),
    ("COc1c(C(c2ccc(F)cc2)N2CCCCC2)ccc2ccoc12 (stereo not shown)", "PDIA1 (Homo sapiens)", "lost activity"),
    ("Oc1cc2c(cc1C(c1ccc(F)cc1)N1CCCCC1)CCC2 (stereo not shown)", "PDIA1 (Homo sapiens)", "completely lost activity"),
]

The reported measurements were obtained from paper PMC8103808.
